experiment: Transmission electron microscope (negative staining) of peptide assemblies; details: aqueous solution or hydrogel; negative staining
Where a SMILES comes first, the peptide text is derived from it.
Reported Endpoint: morphology by TEM (in words)

Compound: CC[C@H](C)[C@H](N)C(=O)N[C@@H](Cc1ccccc1)C(=O)N[C@@H](Cc1ccc(O)cc1)C(=O)N[C@H](C(=O)O)[C@@H](C)O [IFYT] (H-IFYT-OH)
Reported Value: interlaced nanosheets
//
Compound: NCCCC[C@H](NC(=O)[C@@H](N)Cc1c[nH]c2ccccc12)C(=O)N[C@@H](Cc1ccccc1)C(=O)N[C@@H](Cc1ccccc1)C(=O)O [WKFF] (H-WKFF-OH)
Reported Value: entangled nanofibers
//
Compound: CC[C@H](C)[C@H](NC(=O)[C@@H](NC(=O)[C@@H](N)Cc1ccccc1)C(C)C)C(=O)N[C@@H](Cc1ccc(O)cc1)C(=O)O [FVIY] (H-FVIY-OH)
Reported Value: entangled nanofibers
//
Compound: CC(C)[C@H](NC(=O)[C@@H](N)Cc1c[nH]c2ccccc12)C(=O)N[C@@H](Cc1ccccc1)C(=O)N[C@@H](Cc1ccc(O)cc1)C(=O)O [WVFY] (H-WVFY-OH)
Reported Value: interlaced nanosheets

----------
assay: Transmission electron microscope (negative staining) of peptide assemblies; conditions: aqueous solution or hydrogel; negative staining
Where a SMILES comes first, the peptide text is derived from it.

Molecule: N[C@@H](Cc1c[nH]c2ccccc12)C(=O)N[C@@H](CCC(=O)O)C(=O)N[C@@H](Cc1ccccc1)C(=O)N[C@@H](Cc1ccccc1)C(=O)O [WEFF] (H-WEFF-OH)
morphology by TEM (in words): entangled nanofibers

Molecule: CC[C@H](C)[C@H](NC(=O)[C@@H](NC(=O)[C@@H](N)Cc1c[nH]c2ccccc12)[C@@H](C)O)C(=O)N[C@@H](Cc1ccccc1)C(=O)O [WTIF] (H-WTIF-OH)
morphology by TEM (in words): entangled nanofibers

----------
assay: Peptide hydrogel formation, vial-inverting method; assay type: physicochemical; conditions: 30 mM peptide in ultrapure water; pH adjusted to 6.5-8.5 with 1 N NaOH, ultrasonication, standing 48 h; vial-inverting method; concentration raised 30/60/90/120 mM until gelation
Where a SMILES comes first, the peptide text is derived from it.
Reported Endpoint: State

Compound: CC(C)C[C@H](NC(=O)[C@H](CC(C)C)NC(=O)[C@@H](N)CC(C)C)C(=O)N[C@@H](CO)C(=O)O [LLLS] (H-LLLS-OH)
Reported Endpoint: State
Reported Value: gel
//
Compound: CC(C)C[C@H](N)C(=O)N[C@@H](Cc1c[nH]c2ccccc12)C(=O)N[C@@H](Cc1ccccc1)C(=O)N[C@@H](Cc1c[nH]c2ccccc12)C(=O)O [LWFW] (H-LWFW-OH)
Reported Endpoint: State
Reported Value: gel
//
Compound: CC(C)C[C@H](NC(=O)[C@H](CC(C)C)NC(=O)[C@@H](N)CC(C)C)C(=O)N[C@@H](Cc1ccccc1)C(=O)O [LLLF] (H-LLLF-OH)
Reported Endpoint: State
Reported Value: gel
//
Compound: N[C@@H](CS)C(=O)N[C@@H](Cc1c[nH]cn1)C(=O)N[C@@H](Cc1ccccc1)C(=O)N[C@@H](Cc1c[nH]c2ccccc12)C(=O)O [CHFW] (H-CHFW-OH)
Reported Endpoint: State
Reported Value: gel
//
Compound: CC[C@H](C)[C@H](NC(=O)[C@@H](NC(=O)[C@@H](N)Cc1ccccc1)C(C)C)C(=O)N[C@@H](Cc1ccc(O)cc1)C(=O)O [FVIY] (H-FVIY-OH)
Reported Endpoint: State
Reported Value: gel
//
Compound: N[C@@H](CO)C(=O)N[C@@H](CO)C(=O)N[C@@H](Cc1ccccc1)C(=O)N[C@@H](Cc1ccccc1)C(=O)O [SSFF] (H-SSFF-OH)
Reported Endpoint: State
Reported Value: gel
//
Compound: CC(C)C[C@H](N)C(=O)N[C@H](C(=O)N[C@@H](Cc1c[nH]cn1)C(=O)N[C@@H](Cc1ccccc1)C(=O)O)C(C)C [LVHF] (H-LVHF-OH)
Reported Endpoint: State
Reported Value: gel
//
Compound: CC[C@H](C)[C@H](NC(=O)[C@@H](NC(=O)[C@@H](N)Cc1c[nH]c2ccccc12)[C@@H](C)CC)C(=O)N[C@@H](Cc1ccccc1)C(=O)O [WIIF] (H-WIIF-OH)
Reported Endpoint: State
Reported Value: gel

Returns the measured State for the input compound. Input: CC(C)C[C@H](NC(=O)[C@H](CC(C)C)NC(=O)[C@@H](N)CCCCN)C(=O)N[C@@H](Cc1ccccc1)C(=O)O [KLLF]
gel

What about this compound? N[C@@H](Cc1ccccc1)C(=O)N[C@@H](Cc1ccccc1)C(=O)N[C@@H](Cc1ccccc1)C(=O)N[C@@H](Cc1ccccc1)C(=O)O [FFFF] (H-FFFF-OH)
gel

What about this compound? NCC(=O)N[C@@H](Cc1ccccc1)C(=O)N[C@@H](Cc1ccccc1)C(=O)N[C@@H](Cc1ccc(O)cc1)C(=O)O [GFFY] (H-GFFY-OH)
gel

What about this compound? N[C@@H](Cc1c[nH]c2ccccc12)C(=O)N[C@@H](Cc1ccc(O)cc1)C(=O)N[C@@H](Cc1ccccc1)C(=O)N[C@@H](Cc1ccccc1)C(=O)O [WYFF] (H-WYFF-OH)
gel

What about this compound? CC[C@H](C)[C@H](NC(=O)[C@H](CC(C)C)NC(=O)[C@@H](NC(=O)[C@@H](N)CC(C)C)[C@@H](C)O)C(=O)O [LTLI] (H-LTLI-OH)
gel

----------
For each of the molecules below, state its Concentration.
assay: Peptide hydrogel formation, vial-inverting method; format: physicochemical; settings: concentration at which the state was recorded: lowest of 30, 60, 90, 120 mM that gave a gel; 120 mM for non-gelating peptides
Where a SMILES comes first, the peptide text is derived from it.
Express it in µM; write the number only.

Returns the measured Concentration for the input molecule. Input: CSCC[C@H](NC(=O)[C@@H](N)CCCCN)C(=O)N[C@@H](CC(C)C)C(=O)N[C@@H](Cc1ccccc1)C(=O)O [KMLF] (H-KMLF-OH)
120000

What about this molecule? NCCCC[C@H](NC(=O)[C@@H](N)Cc1ccccc1)C(=O)N[C@@H](Cc1ccccc1)C(=O)N[C@@H](Cc1c[nH]c2ccccc12)C(=O)O [FKFW] (H-FKFW-OH)
60000

What about this molecule? CC(C)C[C@H](NC(=O)[C@H](CC(C)C)NC(=O)[C@@H](N)Cc1c[nH]cn1)C(=O)N[C@@H](Cc1ccccc1)C(=O)O [HLLF] (H-HLLF-OH)
90000

----------
assay: Transmission electron microscope (negative staining) of peptide assemblies; conditions: TEM, negative staining with uranyl acetate, 120 kV; line of the table gives 30 mM
Where a SMILES comes first, the peptide text is derived from it.

Compound: CSCC[C@H](NC(=O)[C@H](CCSC)NC(=O)[C@H](Cc1ccccc1)NC(=O)[C@@H](N)Cc1c[nH]c2ccccc12)C(=O)O [WFMM] (H-WFMM-OH)
Morphology: fibre
--
Compound: N[C@@H](Cc1c[nH]c2ccccc12)C(=O)N[C@@H](CCC(=O)O)C(=O)N[C@@H](Cc1ccccc1)C(=O)N[C@@H](Cc1ccccc1)C(=O)O [WEFF] (H-WEFF-OH)
Morphology: fibre
--
Compound: CC(C)C[C@H](NC(=O)[C@H](C)NC(=O)[C@@H](N)Cc1c[nH]c2ccccc12)C(=O)N[C@@H](Cc1c[nH]c2ccccc12)C(=O)O [WALW] (H-WALW-OH)
Morphology: fibre
--
Compound: N[C@@H](CO)C(=O)N[C@@H](CO)C(=O)N[C@@H](Cc1ccccc1)C(=O)N[C@@H](Cc1ccccc1)C(=O)O [SSFF] (H-SSFF-OH)
Morphology: fibre

----------
experiment: Transmission electron microscope (negative staining) of peptide assemblies; conditions: TEM, negative staining with uranyl acetate, 120 kV; line of the table gives 120 mM
Where a SMILES comes first, the peptide text is derived from it.
Reported Endpoint: Morphology

Examples with their reported Morphology follow.
Molecule: CC[C@H](C)[C@H](NC(=O)[C@@H](NC(=O)[C@H](Cc1c[nH]cn1)NC(=O)[C@@H](N)CCC(N)=O)[C@@H](C)CC)C(=O)O [QHII] (H-QHII-OH)
Morphology: aggregates
//
Molecule: CC[C@H](C)[C@H](N)C(=O)N[C@@H](Cc1c[nH]cn1)C(=O)N[C@@H](Cc1ccccc1)C(=O)N[C@H](C(=O)O)C(C)C [IHFV] (H-IHFV-OH)
Morphology: sphere
//
Molecule: CC[C@H](C)[C@H](N)C(=O)N[C@@H](CCCNC(=N)N)C(=O)N[C@H](C(=O)N[C@@H](Cc1c[nH]c2ccccc12)C(=O)O)C(C)C [IRVW] (H-IRVW-OH)
Morphology: sphere
//
Molecule: NCCCC[C@H](NC(=O)[C@H](CCCCN)NC(=O)[C@H](CCCCN)NC(=O)[C@@H](N)CCCCN)C(=O)O [KKKK] (H-KKKK-OH)
Morphology: blank
//
Molecule: CSCC[C@H](NC(=O)[C@H](CC(N)=O)NC(=O)[C@@H](NC(=O)CN)C(C)C)C(=O)O [GVNM] (H-GVNM-OH)
Morphology: sphere
//
Molecule: CC[C@H](C)[C@H](NC(=O)[C@H](Cc1c[nH]c2ccccc12)NC(=O)[C@@H](N)C(C)C)C(=O)N[C@H](C(=O)O)[C@@H](C)O [VWIT] (H-VWIT-OH)
Morphology: aggregates
//
Molecule: CC(C)C[C@H](NC(=O)[C@@H](N)CC(C)C)C(=O)N[C@@H](CCCNC(=N)N)C(=O)N[C@@H](CCC(N)=O)C(=O)O [LLRQ] (H-LLRQ-OH)
Morphology: aggregates
//
Molecule: N[C@@H](Cc1ccccc1)C(=O)NCC(=O)N[C@@H](Cc1c[nH]c2ccccc12)C(=O)N[C@@H](Cc1c[nH]c2ccccc12)C(=O)O [FGWW] (H-FGWW-OH)
Morphology: sphere

Returns the measured Morphology for the input molecule. Input: CSCC[C@H](NC(=O)[C@@H](N)CCCCN)C(=O)N[C@@H](CC(C)C)C(=O)N[C@@H](Cc1ccccc1)C(=O)O [KMLF] (H-KMLF-OH)
aggregates

What about this molecule? CSCC[C@H](NC(=O)[C@H](Cc1c[nH]c2ccccc12)NC(=O)[C@@H](N)Cc1c[nH]c2ccccc12)C(=O)N[C@@H](Cc1ccccc1)C(=O)O [WWMF] (H-WWMF-OH)
rod

What about this molecule? CC(C)C[C@H](NC(=O)[C@H](Cc1ccccc1)NC(=O)[C@@H](N)CS)C(=O)N[C@@H](Cc1c[nH]c2ccccc12)C(=O)O [CFLW] (H-CFLW-OH)
aggregates
